Cited source for all entries: paper PMC6218799

test system: CYP2C19; experiment: Cocktail method in rats: pharmacokinetics of probe drug omeprazole (CYP2C19 activity); format: in vivo; settings: male, Wistar, rat, plasma, iv, 10 mg/kg, Digeda group (Digeda-4 decoction 600 mg/kg ig 14 days), omeprazole 10 mg/kg iv
recorded-metric: AUC(0-t) (ng·h/mL)
Reply numerically in ng·h/mL, unit not repeated.

Report AUC(0-t) for COc1ccc2[nH]c([S+]([O-])Cc3ncc(C)c(OC)c3C)nc2c1 (stereo not shown)
13300

* * *

Biological target: CYP1A2 (Rattus norvegicus, UniProt P04799)
Construct: from tissue; host or cells: whole animal, male Wistar rats (in vivo pharmacokinetics)
Sequence (P04799 1-513): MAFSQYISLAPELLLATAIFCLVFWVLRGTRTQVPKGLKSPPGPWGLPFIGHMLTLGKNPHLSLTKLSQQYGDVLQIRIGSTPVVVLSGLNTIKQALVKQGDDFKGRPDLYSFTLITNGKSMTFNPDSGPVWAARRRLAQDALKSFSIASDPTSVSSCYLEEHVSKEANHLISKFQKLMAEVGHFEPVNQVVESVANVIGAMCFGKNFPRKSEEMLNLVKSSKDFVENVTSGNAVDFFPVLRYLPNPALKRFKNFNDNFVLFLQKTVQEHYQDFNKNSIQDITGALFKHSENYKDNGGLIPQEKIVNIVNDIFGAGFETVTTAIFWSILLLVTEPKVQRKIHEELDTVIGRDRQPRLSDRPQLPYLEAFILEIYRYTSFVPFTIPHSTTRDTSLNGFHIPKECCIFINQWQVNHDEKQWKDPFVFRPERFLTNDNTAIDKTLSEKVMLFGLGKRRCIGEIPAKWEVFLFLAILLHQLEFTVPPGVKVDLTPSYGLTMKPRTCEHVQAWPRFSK
Assay: Cocktail method in rats: pharmacokinetics of probe drug theophylline (CYP1A2 activity)
Assay type: in vivo
Settings: male, Wistar, plasma, iv, 10 mg/kg, control group (saline ig 14 days), theophylline 10 mg/kg iv
recorded-metric: Cmax

Report Cmax for Cn1c(=O)c2[nH]cnc2n(C)c1=O
31800 ng/mL
